runParameters: pH 8.1, aqueous buffer
Where a SMILES comes first, the peptide text is derived from it. The star is where a group is joined. dGluconoyl = O=C([C@H](O)[C@@H](O)[C@H](O)[C@H](O)CO)*; NH(9-Et-carbazol-3-yl) = CCn1c2ccccc2c2cc(N*)ccc21
propertyName: solubility

// worked examples, solubility included
compound	solubility
CC[C@H](C)[C@H](NC(=O)[C@H](O)[C@@H](O)[C@H](O)[C@H](O)CO)C(=O)N[C@@H](Cc1ccccc1)C(=O)N[C@@H](CCCNC(=N)N)C(=O)Nc1ccc2c(c1)c1ccccc1n2CC	1.1 mM
CC[C@H](C)[C@H](NC(=O)OC(C)(C)C)C(=O)N[C@@H](Cc1ccccc1)C(=O)N[C@@H](CCCCN)C(=O)Nc1ccc2c(c1)c1ccccc1n2CC [Boc--Ile--Phe--Lys--AEC, reference compound]	0.04 mM

solubility lookup needed for `CC[C@H](C)[C@H](NC(=O)[C@H](O)[C@@H](O)[C@H](O)[C@H](O)CO)C(=O)N[C@@H](CC(C)C)C(=O)N[C@@H](CCCCN)C(=O)Nc1ccc2c(c1)c1ccccc1n2CC` , thanks. 94 mM

Which solubility is reported for this compound? CCn1c2ccccc2c2cc(NC(=O)[C@H](CCCCN)NC(=O)CNC(=O)[C@H](CC(C)C)NC(=O)[C@@H](NC(=O)[C@H](O)[C@@H](O)[C@H](O)[C@H](O)CO)C(C)C)ccc21 [GlcA--Val--Leu--Gly--Lys--AEC] (dGluconoyl-VLGK-{NH(9-Et-carbazol-3-yl)}) 62 mM

---

Attribute: solubility
runParameters: pH 8.1, aqueous buffer
API: value field is a number in mM; no unit string.

Field: example entries. Status: answers known.
compound	readoutNumber
CCn1c2ccccc2c2cc(NC(=O)[C@H](CCCNC(=N)N)NC(=O)[C@H](Cc3ccccc3)NC(=O)[C@@H](NC(=O)[C@H](O)[C@@H](O)[C@H](O)[C@H](O)CO)C(C)C)ccc21	100
CC[C@H](C)[C@H](NC(=O)[C@H](O)[C@@H](O)[C@H](O)[C@H](O)CO)C(=O)N[C@@H](CC(C)C)C(=O)N[C@@H](CCCNC(=N)N)C(=O)Nc1ccc2c(c1)c1ccccc1n2CC	143

Requested field: solubility. Item: CC[C@H](C)[C@H](NC(=O)OCc1ccccc1)C(=O)N[C@@H](Cc1ccccc1)C(=O)N[C@@H](CCCCN)C(=O)Nc1ccc2c(c1)c1ccccc1n2CC [Z--Ile--Phe--Lys--AEC, reference compound] 0.03

---

assayExplanation: Solubility in distilled water / aqueous solution
Type: physicochemical
runParameters: Table III; water solubility, 20° C.; read-out: SOLUBILITY (mM AT 20° C.)
Where a SMILES comes first, the peptide text is derived from it. The star is where a group is joined. AMC = Cc1cc(=O)oc2cc(N*)ccc12
Some molecules, each annotated with its measured solubility.
Just the number in mM, nothing appended.

Examples from the recorded data:
molecule	readoutNumber
Cc1cc(=O)oc2cc(NC(=O)[C@H](Cc3ccccc3)NC(=O)[C@H](C)NC(=O)[C@H](C)NC(=O)[C@H](O)[C@H](O)[C@H](O)CO)ccc12 [ribonoyl-L-Ala-L-Ala-L-Phe-AMC]	2
CC(=O)N[C@@H](C)C(=O)N[C@@H](C)C(=O)N[C@@H](Cc1ccccc1)C(=O)Nc1ccc2c(C)cc(=O)oc2c1 [AcAlaAlaPheAMC, reference compound] (Ac-Ala-Ala-Phe-{AMC})	0.2
Cc1cc(=O)oc2cc(NC(=O)[C@H](Cc3ccccc3)NC(=O)[C@H](C)NC(=O)[C@H](C)NC(=O)C(O)C(O)C(O)C(O)C(O)C(O)CO)ccc12 (stereo partly drawn) [glucooctanoyl-L-Ala-L-Ala-L-Phe-AMC]	3.2

// next item, solubility requested
Which value of solubility has been reported for Cc1cc(=O)oc2cc(NC(=O)[C@H](Cc3ccccc3)NC(=O)[C@H](C)NC(=O)[C@H](C)NC(=O)[C@H](O)[C@@H](O)[C@H](O)[C@H](O)CO)ccc12 [gluconoyl-L-Ala-L-Ala-L-Phe-AMC] in the records? 2.4
